- Test system: CAKI-1 renal
- assay_details: NCI tumour cell line growth inhibition, 384-well format; in the data active = GI50 below about 0.43 µM; inactive = the rest
Please reply with one of these outcomes: active, inactive

Record excerpt, results attached:
Look up the recorded call for `CC(C)C[C@H](NC(=O)CNC(=O)c1cc(Cl)ccc1Cl)B(O)O` in this test. active

Look up the recorded call for `NS(=O)(=O)OC[C@H]1C[C@@H](Nc2ccnc3cc(-c4cccc(SC(F)(F)F)c4)nn23)[C@H](O)[C@@H]1O` in this test. active

Look up the recorded call for `CNC(=O)c1c(C)oc2cc(Oc3ncnc4cc(OC)c(OC)cc34)ccc12` in this test. inactive

We next turn to a different compound, shown below.
Look up the recorded call for `Cc1c(C)n(CCCN2CCN(C)CC2)c2ccc(Oc3cccc(C(=O)N4CCN(CCc5ccc(F)cc5)CC4)c3)cc12` in this test. inactive

* * *

- Tested on: HCC-2998 colon
- assay_details: NCI tumour cell line growth inhibition, 384-well format
Documented TGI across a set of compounds

Examples with answers:
Value (TGI, HCC-2998 colon) for record `CNC(=O)c1ccc(N2C(=S)N(c3cnc(C#N)c(C(F)(F)F)c3)C(=O)C23CCC3)cc1F` = > 100 µM

Value (TGI, HCC-2998 colon) for record `NS(=O)(=O)OC[C@H]1C[C@@H](Nc2ccnc3cc(-c4cccc(SC(F)(F)F)c4)nn23)[C@H](O)[C@@H]1O` = 0.0274 µM

Value (TGI, HCC-2998 colon) for record `CNC(=O)c1c(C)oc2cc(Oc3ncnc4cc(OC)c(OC)cc34)ccc12` = > 100 µM

Please examine the following record next.
Value (TGI, HCC-2998 colon) for record `Cc1cc2c(C(=O)NC[C@H](C)c3ccccc3)c(O)c(O)cc2c(O)c1-c1c(C)cc2c(C(=O)NC[C@H](C)c3ccccc3)c(O)c(O)cc2c1O` = 3.2 µM

* * *

- Tested on: BT-549 breast
- assay_details: NCI tumour cell line growth inhibition, 384-well format; in the data active = GI50 below about 0.43 µM; inactive = the rest
Please reply with one of these outcomes: active, inactive

Record excerpt, results attached:
Look up the recorded call for `Cc1cc2c(C(=O)NC[C@H](C)c3ccccc3)c(O)c(O)cc2c(O)c1-c1c(C)cc2c(C(=O)NC[C@H](C)c3ccccc3)c(O)c(O)cc2c1O` in this test. active

Look up the recorded call for `Cc1c(C)n(CCCN2CCN(C)CC2)c2ccc(Oc3cccc(C(=O)N4CCN(CCc5ccc(F)cc5)CC4)c3)cc12` in this test. inactive

Look up the recorded call for COc1cc2c(cc1OC(C)C)[C@H](c1ccc(Cl)cc1)N(c1ccc(N(C)CC3CCC(N4CCN(C)C(=O)C4)CC3)cc1)C(=O)C2 (stereo not given in full) in this test. inactive

Look up the recorded call for `CNC(=O)c1c(C)oc2cc(Oc3ncnc4cc(OC)c(OC)cc34)ccc12` in this test. inactive

We next turn to a different compound, shown below.
Look up the recorded call for `NS(=O)(=O)OC[C@H]1C[C@@H](Nc2ccnc3cc(-c4cccc(SC(F)(F)F)c4)nn23)[C@H](O)[C@@H]1O` in this test. active

* * *

- Test system: SF-295 CNS
- assay_details: NCI tumour cell line growth inhibition, 384-well format
outcome_measure: TGI

Examples with answers:
get_value(item= `CNC(=O)c1ccc(N2C(=S)N(c3cnc(C#N)c(C(F)(F)F)c3)C(=O)C23CCC3)cc1F` , readout=TGI) returns > 100000 nM

get_value(item= COc1cc2c(cc1OC(C)C)[C@H](c1ccc(Cl)cc1)N(c1ccc(N(C)CC3CCC(N4CCN(C)C(=O)C4)CC3)cc1)C(=O)C2 (stereo not given in full) , readout=TGI) returns 2990 nM

get_value(item= `Cc1cc2c(C(=O)NC[C@H](C)c3ccccc3)c(O)c(O)cc2c(O)c1-c1c(C)cc2c(C(=O)NC[C@H](C)c3ccccc3)c(O)c(O)cc2c1O` , readout=TGI) returns 1120 nM

Others:
get_value(item= `CC(C)C[C@H](NC(=O)CNC(=O)c1cc(Cl)ccc1Cl)B(O)O` , readout=TGI) returns 236 nM

get_value(item= `Cc1c(C)n(CCCN2CCN(C)CC2)c2ccc(Oc3cccc(C(=O)N4CCN(CCc5ccc(F)cc5)CC4)c3)cc12` , readout=TGI) returns 3200 nM

Where do these numbers come from? They come from PubChem BioAssay (NCI).
